- Test system: NEK5
- Condition notes: concentration: 1 μM, replicates: in singlicate; n = 1;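 note: KINOMEscan kinase panel screen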
Each record here notes measured %Inh.
State the value, then name its unit.

Take a look at these entries with their results.
1) Nc1n[nH]c2cnc(-c3ccccc3)cc12 ... 96.5%
2) Nc1ncnc2c1nc(-c1ccccc1)n2-c1ccccc1 ... 0%
3) O=C(Nc1cccc(-c2nn3ncccc3c2-c2ccnc(Nc3ccccc3)n2)c1)c1c(F)cccc1F ... 0%

Entry O=c1[nH]cc(-c2ccc(N3CCOCC3)cc2)c2sc(-c3cn[nH]c3)cc12 has what %Inh?
0%

Entry COc1cc(Nc2nccc(N3CCC(NC(=O)c4cc5ccccc5s4)C3)n2)cc(OC)c1OC (centres unmarked) has what %Inh?
99.5%

// query %Inh value for entry CN(C)S(=O)(=O)c1cc(-c2ccc3nccc(-c4cccc(S(N)(=O)=O)c4)c3c2)cnc1N
0%

Could you share which %Inh value was measured for Cc1ccc(S(=O)(=O)Nc2ccc(Nc3nccc(Nc4cccc5[nH]ncc45)n3)cc2)cc1 ?
5%

Entry COc1cc(Nc2nccc(N3CCC(NC(=O)Nc4cccc(C(C)=O)c4)C3)n2)cc(OC)c1OC (centres unmarked) : reported %Inh = ?
100%

----------
Quick reference: %Inh of the listed items.
- Test system: MST2
- Construct: gene STK3
- Condition notes: concentration: 1 μM, replicates: in singlicate; n = 1
Your answer should be a plain number; it is taken to be in %.

1) CCS(=O)(=O)c1ccc(OC)c(Nc2nccc(-c3c(-c4cccc(NC(=O)c5c(F)cccc5F)c4)nn4ncccc34)n2)c1 ... 28
2) CCn1c(-c2nonc2N)nc2c(C#CC(C)(C)O)nc(OC[C@H](N)c3ccccc3)cc21 ... 58
3) COc1cc(Nc2nccc(N3CCC(NC(=O)c4cc5ccccc5s4)C3)n2)cc(OC)c1OC (stereo not shown) ... 0
4) COc1cccc(NC(=O)NC2CCN(c3ccnc(Nc4cc(OC)c(OC)c(OC)c4)n3)C2)c1 (stereo not shown) ... 3

Name the recorded %Inh for Cn1cc(-c2[nH]c3cc(NC(=O)[C@H](N)C4CCCCC4)cc4c3c2C=NNC4=O)cn1 .
99.1

Need %Inh of CCCCc1nn2ncccc2c1-c1ccnc(Nc2ccc(N3CCN(C)CC3)cc2)n1 , thanks.
0

%Inh lookup needed for O=C(Nc1n[nH]c2nc(-c3ccc(O)cc3)ccc12)C1CC1 , thanks.
0

----------
- System: MKK7
- Condition notes: concentration: 1 μM, replicates: in singlicate; n = 1
Parameter measured: %Inh (%)
Reply with just the number (in %).

Examples from the recorded data:
1. COc1cccc(-c2ccc3c(NC(=O)C4CC4)n[nH]c3n2)c1 ... 0
2. Nc1ncnc2c1nc(-c1ccccc1)n2-c1ccccc1 ... 38
3. CCn1c(-c2nonc2N)nc2c(C#CC(C)(C)O)nc(OC[C@H](N)c3ccccc3)cc21 ... 0
4. Oc1cc(Nc2ccnc3cc(I)ccc23)ccc1F ... 0
5. Cl.Cl.NCC(NC(=O)c1cc(-c2ccccc2)c(-c2ccnc3[nH]ccc23)s1)c1ccccc1 (centres unmarked) ... 17

What value of %Inh has been recorded for this entry: CC(=O)Nc1nc2cnc(Nc3cc(NC(=O)c4cccc(C5(C#N)CC5)c4Cl)ccc3C)nc2s1
10

Any idea what its %Inh is? The compound is COc1ccc(CNC(=O)NC2CCN(c3ccnc(Nc4ccc(F)cc4)n3)CC2)cc1
0

Please give the measured %Inh for this compound: CC(C)(C)c1ccc2nccc(Nc3cccc(O)c3)c2c1
31

----------
- Tested on: AMPK-alpha1
- Construct: gene PRKAA1
- Condition notes: concentration: 1 μM, replicates: in singlicate; n = 1
Criterion: %Inh meeting or surpassing 20%. Met: t. Not met: f.

1. COc1cccc(NC(=O)NC2CCN(c3ccnc(Nc4cc(OC)c(OC)c(OC)c4)n3)C2)c1 (stereo not shown) ... f
2. Nc1ncc(-c2ccc3nccc(-c4ccncc4)c3c2)cc1S(=O)(=O)N1CCOCC1 ... f
3. O=C(Nc1n[nH]c2nc(-c3ccc(O)cc3)ccc12)C1CC1 ... f

Would you say Cl.Cl.NCC(NC(=O)c1cc(-c2ccccc2)c(-c2ccnc3[nH]ccc23)s1)c1ccccc1 (stereo not shown) shows %Inh at minimum 20%?
f

Please indicate if the recorded %Inh for O=C(NC1CCN(c2ccnc(Nc3ccc(F)cc3)n2)C1)c1cc2ccccc2s1 (stereo not shown) meets or exceeds 20%.
f

Record CSc1cccc2c(-c3ccncn3)c(-c3ccc(F)cc3)nn12 ; criterion: %Inh no lower than 20%. Met?
t

Determine whether this molecule has %Inh no lower than 20%: Nc1ncnc2c1nc(-c1ccccc1)n2-c1ccccc1
t

Dear colleague, could you confirm whether Fc1ccc(-c2ncn(C3CCNCC3)c2-c2ccnc(Oc3ccc(-c4ccccc4)cc3)n2)cc1 has %Inh at or above 20%?
f

Confirm if %Inh reported for the molecule COc1cc(Nc2ncc3c(C)nc(-c4cc5ccccc5[nH]4)n3n2)cc(OC)c1OC is 20% or above.
t

----------
- Test system: HUNK
- Condition notes: concentration: 1 μM, replicates: in singlicate; n = 1
Parameter measured: %Inh (%)
Response body: numeric value in %, unit text excluded.

1) Cl.Cl.NCC(NC(=O)c1cc(-c2ccccc2)c(-c2ccnc3[nH]ccc23)s1)c1ccccc1 (stereo not shown) ... 11
2) C[C@@H](Oc1cc(-n2cnc3cc(-c4ccnc(NCCS(C)(=O)=O)c4)ccc32)sc1C(N)=O)c1ccccc1Cl ... 0
3) O=C(Nc1cccc(-c2nn3ccccc3c2-c2ccnc(Nc3cccc(F)c3)n2)c1)c1c(F)ccc(F)c1Cl ... 0

API: value(readout= %Inh, system= HUNK, query= Nc1n[nH]c2cnc(-c3ccccc3)cc12 )
0

----------
- Test system: MAK
- Condition notes: concentration: 1 μM, replicates: in singlicate; n = 1
// reported %Inh per item
Write the value in % as a bare number.

The examples below pair each entry with its known result.
1) COCCOCCOc1cc2ncc3c4ccc(C#N)cc4[nH]c3c2cc1OC ... 0
2) O=C(Nc1n[nH]c2cc(-c3ccoc3)ccc12)C1CC1 [SB-738481] ... 3
3) Cl.Cl.NCC(C(=O)Nc1cc(Br)c(-c2ccnc3[nH]ccc23)s1)c1ccccc1 (stereo not shown) [GSK1269851] ... 1

Quick check: %Inh of O=C(NC1CCN(c2ccnc(Nc3ccc(F)cc3)n2)C1)c1cc2ccccc2s1 (stereo not shown) [GSK1379716] ?
38

What %Inh value was documented for this compound, CCn1c(-c2nonc2N)nc2c(C#CC(C)(C)O)ncc(OCCCCN)c21.O=C(O)C(F)(F)F.O=C(O)C(F)(F)F [GSK507274] ?
88

Look up %Inh for this compound: Oc1cc(Nc2ccnc3cc(I)ccc23)ccc1F [GW552771]
22

I would be grateful if you could share the reported %Inh for CNC(=O)c1ccccc1Nc1nc(Nc2ccc(N3CCOCC3)cc2)ncc1Cl.Cl [GSK1576028] .
11

----------
- Test system: FGR
- Condition notes: concentration: 1 μM, replicates: in singlicate; n = 1
Below, each entry is listed alongside its reported %Inh.
Record the value in %, omitting the unit from your answer.

Below, 8 compounds whose answers are already recorded.
1. Cl.c1ccc(-c2ccc3c(Nc4ccc5[nH]ccc5c4)ccnc3c2)nc1 ... 53
2. O=C(NC1CCN(c2ccnc(Nc3ccc(F)cc3)n2)C1)c1cc2ccccc2s1 (stereo not drawn) ... 25
3. FC(F)(F)c1ccc(/C=C/c2cncnc2Nc2ccc3[nH]c(Cc4ccccc4)nc3c2)cc1 ... 34
4. COC(=O)Nc1nc2ccc(Oc3ccc(NC(=O)Nc4cc(C(F)(F)F)ccc4F)cc3)cc2n1C.Cl ... 28
5. Cl.NC(=O)c1cccc(Nc2nccc(Nc3ccc(Oc4c(Cl)cccc4Cl)c(Cl)c3)n2)c1 ... 31
6. Cc1occc1-c1ncc(OC[C@@H](N)Cc2c[nH]c3ccccc23)cc1-c1ccc2[nH]nc(C)c2c1.O=C(O)C(F)(F)F ... 77
7. CC(C)c1nc(-c2cccc(NS(=O)(=O)c3c(F)cccc3F)c2F)c(-c2ccnc(Nc3ccc(N4CCOCC4)nc3)n2)s1 ... 98.7
8. CCCCc1nn2ncccc2c1-c1ccnc(Nc2ccc(N3CCN(C)CC3)cc2)n1 ... 91.9

Item Nc1ncc(-c2ccc3nccc(-c4ccncc4)c3c2)cc1S(=O)(=O)N1CCOCC1 has what recorded %Inh?
24

Endpoint output: %Inh of Cl.Cl.NCC(NC(=O)c1cc(-c2ccccc2)c(-c2ccnc3[nH]ccc23)s1)c1ccccc1 (stereo not drawn) . Value?
35

Item under review: Clc1ccc(-c2nn3ncccc3c2-c2ccnc(Nc3ccc4c(c3)OCCO4)n2)cc1 . Reported %Inh?
75

Return reported %Inh; argument: COc1cc(Nc2nccc(N3CCC(NC(=O)Nc4cccc(C(C)=O)c4)C3)n2)cc(OC)c1OC (stereo not drawn)
14

Given the entry O=C(Nc1cccc(-c2nn3ncccc3c2-c2ccnc(Nc3ccccc3)n2)c1)c1c(F)cccc1F , report its measured %Inh.
97.2

Name the reported %Inh value associated with the compound CCn1c(-c2nonc2N)nc2c(C#CC(C)(C)O)nc(OC[C@H](N)c3ccccc3)cc21
0

Quick check: %Inh of CNC(=O)c1ccccc1Nc1nc(Nc2ccc(N3CCOCC3)cc2)ncc1Cl.Cl ?
98.1

Consider the compound COc1cc(Nc2ncc3c(C)nc(-c4cc5ccccc5[nH]4)n3n2)cc(OC)c1OC and give its measured %Inh.
40

Record request: %Inh value, item Cn1cc(-c2[nH]c3cc(NC(=O)[C@H](N)C4CCCCC4)cc4c3c2C=NNC4=O)cn1
87

Given Cl.Cl.NCC(NCc1ccc(-c2ccnc3[nH]ccc23)s1)c1ccccc1 (stereo not drawn) , state its recorded %Inh.
23

For COc1cccc(-c2ccc3c(NC(=O)C4CC4)n[nH]c3n2)c1 , what is its reported %Inh?
26

Suppose we examine the compound O=c1[nH]cc(-c2ccc(N3CCOCC3)cc2)c2sc(-c3cn[nH]c3)cc12 ; what %Inh value has been reported?
0

Endpoint output: %Inh of COc1ccc(Nc2nccc(N3CCC(NC(=O)Nc4cccc(OC)c4)C3)n2)cc1 (stereo not drawn) . Value?
17
